Molecular target: y-iAChSnFR
Settings: 200 nM purified sensor
Item-by-item account of Kd
Give the quantity in µM, number only.

> print(dat)
           smiles  assay.value
1  C[N+](C)(C)CCO           20

Input line: Which Kd value is on record for CC(=O)OCC[N+](C)(C)C ?
Output line: 0.5

---

Target: iAChSnFR (iAChSnFR0.9)
Conditions: read-out: apparent Kd; 200 nM soluble purified sensor
measurement-type: pKd
The value called pKd is obtained by taking minus log10 of the concentration in mol/L.

> print(dat)
           smiles  measurement.type  assay.value
1  C[N+](C)(C)CCO               pKd         4.35

Turning to the following molecule.
Input line: Given the entry CC(=O)OCC[N+](C)(C)C , report its measured pKd.
Output line: 5.89
